Target: hDMT1 (Homo sapiens)
Assay: two-electrode voltage-clamp electrophysiology of Fe2+ evoked currents in hDMT1-injected Xenopus oocytes
Format: cell-based
Settings: Fe2+ 20 μM, currents at -70 mV, dose-response 0.01-10 μM; read-out: IC50 of inhibition of Fe2+ evoked currents
pIC50: −log10 of the molar value.
Measurement name: pIC50

> print(dat)
                                   compound  measured
1  N=C(N)SCc1cccc2c1oc1c(CSC(=N)N)cccc12 [Compound 1, reference compound]      6.85

====

Biological target: hDMT1 (SLC11A2) (Homo sapiens)
Construct: DsRED; expressed in transfected cells
Sequence (P49281 1-568): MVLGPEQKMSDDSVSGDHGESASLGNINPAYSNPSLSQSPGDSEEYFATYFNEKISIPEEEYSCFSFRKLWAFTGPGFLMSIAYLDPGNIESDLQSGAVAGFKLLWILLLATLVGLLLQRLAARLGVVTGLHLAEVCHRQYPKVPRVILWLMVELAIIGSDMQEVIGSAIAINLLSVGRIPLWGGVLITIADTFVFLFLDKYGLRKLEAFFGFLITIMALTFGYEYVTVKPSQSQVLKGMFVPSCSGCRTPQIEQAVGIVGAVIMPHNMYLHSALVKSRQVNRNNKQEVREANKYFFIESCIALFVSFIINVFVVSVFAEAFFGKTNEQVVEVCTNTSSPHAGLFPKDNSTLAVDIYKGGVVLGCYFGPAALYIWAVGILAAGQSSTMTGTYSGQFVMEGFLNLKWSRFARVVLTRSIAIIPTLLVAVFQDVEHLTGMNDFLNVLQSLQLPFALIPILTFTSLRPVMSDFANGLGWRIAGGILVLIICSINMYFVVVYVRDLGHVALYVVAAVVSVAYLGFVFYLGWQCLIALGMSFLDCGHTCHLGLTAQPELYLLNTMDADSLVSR
Test: radioactive iron uptake assay in HEK293 cells stably overexpressing hDMT1
Assay type: cell-based
Settings: from IC50 of radioactive iron uptake in HEK293-hDMT1
Mark each entry Yes if its Ligand efficiency sits below 0.4, and No for all others.

> print(dat)
                                   compound                    assay.system  label.class
1  Cc1cc(=O)[nH]c(-n2nc(C)c(C)c2C)n1 [Compound 6]  hDMT1 (SLC11A2) (Homo sapiens)           No
2  Cc1cc(=O)[nH]c(-n2nc3c4c2CCCC4CCC3)n1 (stereo not drawn) [Compound 18]  hDMT1 (SLC11A2) (Homo sapiens)           No
3  N=C(N)SCc1cccc2c1oc1c(CSC(=N)N)cccc12 [Compound 1, reference compound]  hDMT1 (SLC11A2) (Homo sapiens)          Yes
4  Cc1cc(C)n(-c2nc(C)c(C)c(O)n2)n1 [Compound 19]  hDMT1 (SLC11A2) (Homo sapiens)           No
5  Cc1cc(=O)[nH]c(-n2nc3c(c2C)CCCC3)n1 [Compound 13]  hDMT1 (SLC11A2) (Homo sapiens)           No
6  CCc1cc(CC)n(-c2nc(C)cc(=O)[nH]2)n1 [Compound 16]  hDMT1 (SLC11A2) (Homo sapiens)           No
7  Cc1cc(C)c(CSC(=N)N)c(C)c1CSC(=N)N [Compound 2, reference compound]  hDMT1 (SLC11A2) (Homo sapiens)          Yes
8  CCc1c2c(nn1-c1nc(C)cc(=O)[nH]1)CCCC2 [Compound 17]  hDMT1 (SLC11A2) (Homo sapiens)           No
